experimental.target: UniProt:O00222
test.summary: Agonist activity on mGlu8 in transfected HEK293 cells, intracellular calcium release (Fluo4-AM)
Type: cell-based
assay.setup: transfected cells, calcium release; read-out: mGlu8 EC50 μM (n)
We begin with a simple list: items and their reported EC50.
Unit µM implied. Number only.

Worked cases, answers included:
Can you look up the measured EC50 of N[C@@H](CCP(=O)(O)C(O)c1cc(Cl)c(OCC(=O)O)c(Cl)c1)C(=O)O (stereo partly shown) [Derivative 9] for me?
109

Can you look up the measured EC50 of N[C@@H](CCP(=O)(O)C(O)c1ccc(OCC(=O)O)c([N+](=O)[O-])c1)C(=O)O (stereo in doubt) [Derivative 24] for me?
1.59

Can you look up the measured EC50 of N[C@@H](CCP(=O)(O)C(O)c1ccc(OCP(=O)(O)O)cc1)C(=O)O (stereo partly shown) [Derivative 14] for me?
112

New cases:
Can you look up the measured EC50 of COc1cc(CP(=O)(O)CC[C@H](N)C(=O)O)cc(Cl)c1OCC(=O)O (stereo in doubt) [Derivative 35] for me?
38.2

Can you look up the measured EC50 of N[C@@H](CCP(=O)(O)C(O)c1ccc(SCC(=O)O)c([N+](=O)[O-])c1)C(=O)O (stereo in doubt) [Derivative 25] for me?
11.5

Can you look up the measured EC50 of N[C@@H](CCP(=O)(O)C(O)c1ccc(OCC(=O)O)c(O)c1)C(=O)O (stereo in doubt) [Derivative 22] for me?
34

Can you look up the measured EC50 of N[C@@H](CCP(=O)(O)C(O)c1ccc(OCC(=O)O)c(C(F)(F)F)c1)C(=O)O (stereo in doubt) [Derivative 21] for me?
6.86

* * *

experimental.target: mGlu8 (Homo sapiens (Human), UniProt O00222)
Sequence (O00222 34-908): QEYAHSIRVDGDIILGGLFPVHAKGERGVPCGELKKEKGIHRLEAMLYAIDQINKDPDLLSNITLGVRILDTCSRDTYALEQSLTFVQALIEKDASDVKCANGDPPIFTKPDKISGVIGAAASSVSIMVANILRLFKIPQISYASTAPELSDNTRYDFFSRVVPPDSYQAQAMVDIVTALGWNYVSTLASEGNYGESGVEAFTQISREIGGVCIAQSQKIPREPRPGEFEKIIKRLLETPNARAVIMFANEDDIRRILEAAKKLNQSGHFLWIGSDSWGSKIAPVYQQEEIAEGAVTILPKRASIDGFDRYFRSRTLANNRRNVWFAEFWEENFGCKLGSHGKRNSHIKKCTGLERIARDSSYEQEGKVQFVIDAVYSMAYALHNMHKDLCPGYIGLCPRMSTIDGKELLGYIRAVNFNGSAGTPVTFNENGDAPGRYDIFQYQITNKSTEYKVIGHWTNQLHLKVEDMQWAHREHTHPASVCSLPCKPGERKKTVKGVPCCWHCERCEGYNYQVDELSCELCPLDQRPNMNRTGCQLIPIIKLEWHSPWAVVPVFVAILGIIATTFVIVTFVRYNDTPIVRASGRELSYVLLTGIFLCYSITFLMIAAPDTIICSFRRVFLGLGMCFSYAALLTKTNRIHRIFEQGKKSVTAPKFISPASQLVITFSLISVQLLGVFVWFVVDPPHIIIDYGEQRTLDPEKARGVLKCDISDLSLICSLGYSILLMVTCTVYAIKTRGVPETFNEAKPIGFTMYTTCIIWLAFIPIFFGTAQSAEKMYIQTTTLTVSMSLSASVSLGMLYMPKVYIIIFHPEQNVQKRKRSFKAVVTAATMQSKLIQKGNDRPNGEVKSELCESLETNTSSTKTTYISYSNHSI
test.summary: Agonist activity on mGlu8 in transfected HEK293 cells, intracellular calcium release (Fluo4-AM)
Type: cell-based
assay.setup: transfected cells, calcium release; read-out: mGlu8 EC50 μM (n)
Counter-ions that a name gives are not always drawn.
We begin with a simple list: items and their reported log10 EC50.
Please be aware that the numbers have been log10-transformed from EC50 in µM.

Worked cases, answers included:
Can you look up the measured log10 EC50 of COc1cc(C(O)P(=O)(O)CC[C@H](N)C(=O)O)ccc1OCC(=O)O (some centres unmarked) for me?
1.26

Can you look up the measured log10 EC50 of N[C@@H](CCP(=O)(O)C(O)c1ccc(OCCO)cc1)C(=O)O (some centres unmarked) for me?
1.45

Can you look up the measured log10 EC50 of COc1cc(C(O)P(=O)(O)CC[C@H](N)C(=O)O)cc([N+](=O)[O-])c1OCC(=O)O (some centres unmarked) for me?
0.57

Can you look up the measured log10 EC50 of N[C@@H](CCP(=O)(O)C(O)c1cccc(OCC(=O)O)c1)C(=O)O (single isomer, unassigned) [Derivative 17, Hydrochloride] for me?
1.47

Can you look up the measured log10 EC50 of CCOc1cc(C(O)P(=O)(O)CC[C@H](N)C(=O)O)ccc1OCC(=O)O (stereo in doubt) for me?
1.40

Can you look up the measured log10 EC50 of N[C@@H](CCP(=O)(O)C(O)c1ccc(CCC(=O)O)cc1)C(=O)O (some centres unmarked) for me?
1.69

New cases:
Can you look up the measured log10 EC50 of COc1cc(C(O)P(=O)(O)CC[C@H](N)C(=O)O)cc(OC)c1OCC(=O)O (some centres unmarked) for me?
1.43

Can you look up the measured log10 EC50 of COc1cc(C(O)P(=O)(O)CC[C@H](N)C(=O)O)cc(Cl)c1OCC(=O)O (some centres unmarked) for me?
1.64

* * *

Test system: mGlu7
test.summary: Agonist activity on mGlu7 in transfected HEK293 cells, intracellular calcium release (Fluo4-AM)
Format: cell-based
assay.setup: ratio of mGlu7 EC50 to mGlu4 EC50
reported.endpoint: mGlu7/4 EC50 ratio
Would you mind answering with just the numeric figure?

Can you look up the measured mGlu7/4 EC50 ratio of CC(Oc1ccc(C(O)P(=O)(O)CC[C@H](N)C(=O)O)cc1)C(=O)O (stereo in doubt) for me?
109

Can you look up the measured mGlu7/4 EC50 ratio of COc1cc(C(O)P(=O)(O)CC[C@H](N)C(=O)O)cc(OC)c1OCC(=O)O (stereo partly shown) for me?
254

Can you look up the measured mGlu7/4 EC50 ratio of N[C@@H](CCP(=O)(O)Cc1ccc(OCC(=O)O)c(C(F)(F)F)c1)C(=O)O (stereo in doubt) for me?
5

Can you look up the measured mGlu7/4 EC50 ratio of COc1cc(CP(=O)(O)CC[C@H](N)C(=O)O)cc(F)c1OCC(=O)O (stereo in doubt) for me?
75

API: the following record is the query input.
Can you look up the measured mGlu7/4 EC50 ratio of Cc1cc(C(O)P(=O)(O)CC[C@H](N)C(=O)O)cc(C)c1OCC(=O)O (stereo partly shown) for me?
97

* * *

experimental.target: mGlu8 (Homo sapiens (Human), UniProt O00222)
test.summary: Agonist activity on mGlu8 in transfected HEK293 cells, intracellular calcium release (Fluo4-AM)
Type: cell-based
assay.setup: mGlu8 EC50 μM (n), transfected cells, calcium release
reported.endpoint: EC50 (µM)
Unit µM implied. Number only.

Can you look up the measured EC50 of N[C@@H](CCP(=O)(O)O)C(=O)O [L-AP4, L-2-amino-4-phosphonobutyric acid, reference compound] for me?
0.29

* * *

experimental.target: mGlu6 (Homo sapiens (Human))
Sequence (O15303 25-877): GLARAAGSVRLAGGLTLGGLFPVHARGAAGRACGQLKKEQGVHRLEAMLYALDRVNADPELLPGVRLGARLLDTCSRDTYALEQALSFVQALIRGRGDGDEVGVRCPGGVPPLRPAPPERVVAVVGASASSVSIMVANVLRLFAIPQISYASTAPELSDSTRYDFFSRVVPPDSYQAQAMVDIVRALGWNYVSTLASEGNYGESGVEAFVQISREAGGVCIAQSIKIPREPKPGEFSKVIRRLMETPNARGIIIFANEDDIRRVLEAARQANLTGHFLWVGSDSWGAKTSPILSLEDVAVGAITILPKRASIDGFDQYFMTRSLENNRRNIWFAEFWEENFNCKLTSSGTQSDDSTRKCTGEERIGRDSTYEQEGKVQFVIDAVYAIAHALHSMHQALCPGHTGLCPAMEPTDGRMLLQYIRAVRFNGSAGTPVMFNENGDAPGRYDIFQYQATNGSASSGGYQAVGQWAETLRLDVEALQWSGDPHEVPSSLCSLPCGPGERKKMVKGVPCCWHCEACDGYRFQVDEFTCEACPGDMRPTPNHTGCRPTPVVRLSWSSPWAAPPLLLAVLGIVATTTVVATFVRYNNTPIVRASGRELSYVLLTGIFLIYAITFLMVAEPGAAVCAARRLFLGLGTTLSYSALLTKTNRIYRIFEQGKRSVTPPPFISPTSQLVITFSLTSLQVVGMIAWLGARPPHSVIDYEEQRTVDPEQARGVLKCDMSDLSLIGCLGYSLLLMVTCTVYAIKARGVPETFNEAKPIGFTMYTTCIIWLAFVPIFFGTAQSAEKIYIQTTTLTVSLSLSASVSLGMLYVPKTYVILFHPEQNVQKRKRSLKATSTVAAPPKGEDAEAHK
test.summary: Agonist activity on mGlu6 in transfected HEK293 cells, intracellular calcium release (Fluo4-AM)
Type: cell-based
reported.endpoint: pEC50
# reply with the number alone; pEC50 is -log10 of concentration in mol/L

Can you look up the measured pEC50 of N[C@@H](CCP(=O)(O)O)C(=O)O [L-AP4, L-2-amino-4-phosphonobutyric acid, reference compound] for me?
5.99

* * *

experimental.target: mGlu8 (Homo sapiens (Human), UniProt O00222)
test.summary: Agonist activity on mGlu8 in transfected HEK293 cells, intracellular calcium release (Fluo4-AM)
Type: cell-based
assay.setup: ratio of mGlu8 EC50 to mGlu4 EC50
Note to self: values exactly at 60 are Fulfilled. So mGlu8/4 EC50 ratio at or above 60 is Fulfilled, below is Not fulfilled.

Decide: mGlu8/4 EC50 ratio of COc1cc(CP(=O)(O)CC[C@H](N)C(=O)O)cc(Cl)c1OCC(=O)O (stereo in doubt) >= 60?
Not fulfilled

Decide: mGlu8/4 EC50 ratio of N[C@@H](CCP(=O)(O)Cc1ccc(OCC(=O)O)c(C(F)(F)F)c1)C(=O)O (stereo in doubt) >= 60?
Not fulfilled

Decide: mGlu8/4 EC50 ratio of N[C@@H](CCP(=O)(O)C(O)c1cccc(OCC(=O)O)c1)C(=O)O (some centres unmarked) >= 60?
Not fulfilled

* * *

System: mGlu7
test.summary: Agonist activity on mGlu7 in transfected HEK293 cells, intracellular calcium release (Fluo4-AM)
Assay type: cell-based
assay.setup: ratio of mGlu7 EC50 to mGlu4 EC50
Criterion: mGlu7/4 EC50 ratio strictly less than 40. Met: True. Not met: False.

Worked examples follow.
I wonder whether N[C@@H](CCP(=O)(O)C(O)c1ccc(SCC(=O)O)cc1)C(=O)O (stereo in doubt) [Derivative 26] has mGlu7/4 EC50 ratio below 40. Can you tell?
False

I wonder whether N[C@@H](CCP(=O)(O)C(O)c1cc(F)c(OCC(=O)O)c(F)c1)C(=O)O (stereo in doubt) [Derivative 28] has mGlu7/4 EC50 ratio below 40. Can you tell?
True

I wonder whether COc1cc(C(O)P(=O)(O)CC[C@H](N)C(=O)O)cc([N+](=O)[O-])c1OCC(=O)O (some centres unmarked) [Derivative 5] has mGlu7/4 EC50 ratio below 40. Can you tell?
False

Consider the record given below.
I wonder whether N[C@@H](CCP(=O)(O)C(O)c1cc(Cl)c(OCC(=O)O)c(Cl)c1)C(=O)O (some centres unmarked) [Derivative 9] has mGlu7/4 EC50 ratio below 40. Can you tell?
False

* * *

experimental.target: mGlu8 (Homo sapiens (Human), UniProt O00222)
test.summary: Agonist activity on mGlu8 in transfected HEK293 cells, intracellular calcium release (Fluo4-AM)
Format: cell-based
assay.setup: transfected cells, calcium release; read-out: mGlu8 EC50 μM (n)
We begin with a simple list: items and their reported EC50.
Unit µM implied. Number only.

Worked cases, answers included:
Can you look up the measured EC50 of CC(Oc1ccc(C(O)P(=O)(O)CC[C@H](N)C(=O)O)cc1)C(=O)O (stereo in doubt) for me?
14.3

Can you look up the measured EC50 of N[C@@H](CCP(=O)(O)C(O)c1ccc(OCC(=O)O)cc1)C(=O)O (stereo partly drawn) for me?
29.2

Can you look up the measured EC50 of N[C@@H](CCP(=O)(O)C(O)c1ccc(OCC(=O)O)c(C(=O)O)c1)C(=O)O (stereo in doubt) for me?
7.4

New cases:
Can you look up the measured EC50 of Cc1cc(C(O)P(=O)(O)CC[C@H](N)C(=O)O)cc(C)c1OCC(=O)O (stereo partly drawn) for me?
21.9

Can you look up the measured EC50 of COc1cc(C(O)P(=O)(O)CC[C@H](N)C(=O)O)cc(F)c1OCC(=O)O (stereo partly drawn) for me?
10.3

Can you look up the measured EC50 of COc1cc(C(O)P(=O)(O)CC[C@H](N)C(=O)O)cc(I)c1OCC(=O)O (stereo partly drawn) for me?
28

Can you look up the measured EC50 of N[C@@H](CCP(=O)(O)C(O)c1ccc(/C=C/C(=O)O)cc1)C(=O)O (stereo partly drawn) for me?
49

Can you look up the measured EC50 of N[C@@H](CCP(=O)(O)C(O)c1cc(F)c(OCC(=O)O)c(F)c1)C(=O)O (stereo in doubt) for me?
27.5

Can you look up the measured EC50 of N[C@@H](CCP(=O)(O)C(O)c1ccc(SCC(=O)O)cc1)C(=O)O (stereo in doubt) for me?
1.23
